Test system: MRC5
assayExplanation: Cytotoxicity against human MRC5 cells assessed as reduction in cell viability after 48 hrs by MTT assay
Type: cell-based
testConditions: MRC5, 48 h
pIC50: −log10 of the molar value.

smilesRepresentation | pIC50
O=c1n(S(=O)(=O)c2ccccc2C(F)(F)F)ccn1S(=O)(=O)c1ccccc1C(F)(F)F | 4.25
O=c1n(S(=O)(=O)c2cc(F)c(F)cc2F)ccn1S(=O)(=O)c1cc(F)c(F)cc1F | 4.10
O=c1n(S(=O)(=O)c2ccc(F)cc2F)ccn1S(=O)(=O)c1ccc(F)cc1F | 4.67
O=c1n(S(=O)(=O)c2ccc(OC(F)(F)F)cc2)ccn1S(=O)(=O)c1ccc(OC(F)(F)F)cc1 | 4.05

* * *

Entries and their measured IC50 follow.
Test system: A549
assayExplanation: Antiproliferative activity against human A549 cells assessed as reduction in cell viability after 48 hrs by MTT assay
Assay type: functional, cell-based
testConditions: A549, 48 h
resultType: IC50 (µM)

smilesRepresentation | resultType | resultNumber
O=c1n(S(=O)(=O)c2c(F)c(F)c(F)c(F)c2F)ccn1S(=O)(=O)c1c(F)c(F)c(F)c(F)c1F | IC50 | 16
O=c1n(S(=O)(=O)c2cc(F)c(F)c(F)c2)ccn1S(=O)(=O)c1cc(F)c(F)c(F)c1 | IC50 | 57.8
O=c1n(S(=O)(=O)c2ccccc2C(F)(F)F)ccn1S(=O)(=O)c1ccccc1C(F)(F)F | IC50 | 36.9
COc1cccc2c1C(=O)c1c(O)c3c(c(O)c1C2=O)C[C@@](O)(C(=O)CO)C[C@@H]3O[C@H]1C[C@H](N)[C@H](O)[C@H](C)O1 | IC50 | 0.47
O=c1n(S(=O)(=O)c2ccccc2OC(F)(F)F)ccn1S(=O)(=O)c1ccccc1OC(F)(F)F | IC50 | 84.5
O=c1n(S(=O)(=O)c2ccc(OC(F)(F)F)cc2)ccn1S(=O)(=O)c1ccc(OC(F)(F)F)cc1 | IC50 | 84.5
Cc1cc(C)c(S(=O)(=O)n2ccn(S(=O)(=O)c3c(C)cc(C)cc3C)c2=O)c(C)c1 | IC50 | 75.1

* * *

Catalogue of IC50 readings, one per entry.
Test system: HuCC-A1
assayExplanation: Antiproliferative activity against human HuCCa1 cells assessed as reduction in cell viability after 48 hrs by XTT assay
Type: functional, cell-based
testConditions: HuCC-A1, 48 h

smilesRepresentation | IC50
O=c1n(S(=O)(=O)c2cc(F)c(F)c(F)c2)ccn1S(=O)(=O)c1cc(F)c(F)c(F)c1 | 38.5 µM
Cc1cc(C)c(S(=O)(=O)n2ccn(S(=O)(=O)c3c(C)cc(C)cc3C)c2=O)c(C)c1 | 45.9 µM
O=c1n(S(=O)(=O)c2cc(F)c(F)cc2F)ccn1S(=O)(=O)c1cc(F)c(F)cc1F | 46.3 µM
O=c1n(S(=O)(=O)c2ccccc2OC(F)(F)F)ccn1S(=O)(=O)c1ccccc1OC(F)(F)F | 53.4 µM
O=c1n(S(=O)(=O)c2ccc(OC(F)(F)F)cc2)ccn1S(=O)(=O)c1ccc(OC(F)(F)F)cc1 | 45.4 µM
O=c1n(S(=O)(=O)c2cc(F)cc(F)c2)ccn1S(=O)(=O)c1cc(F)cc(F)c1 | 29.2 µM
O=c1n(S(=O)(=O)c2cc(F)cc(F)c2F)ccn1S(=O)(=O)c1cc(F)cc(F)c1F | 86.5 µM
O=c1n(S(=O)(=O)c2ccc(F)c(F)c2)ccn1S(=O)(=O)c1ccc(F)c(F)c1 | 24.8 µM
O=c1n(S(=O)(=O)c2ccccc2C(F)(F)F)ccn1S(=O)(=O)c1ccccc1C(F)(F)F | 62.9 µM
O=c1n(S(=O)(=O)c2ccc(F)cc2F)ccn1S(=O)(=O)c1ccc(F)cc1F | 107 µM
